Test system: HT29 colon
protocol_description: NCI tumour cell line growth inhibition, 48 h
TGI below 40 µM gives not met; TGI at or above it gives met.

molecule | group_label
O=C(N=S(NC(=O)c1ccccc1)C(Cl)(Cl)Cl)c1ccccc1 (stereo unspecified) | not met
Cc1ccc(NC(=O)/C=C/c2ccccc2)c(C(N)=O)c1 | not met
Cc1sc(Cc2ccccc2)nc1-c1ccc(N)cc1 | met
COc1ccc(OC)c(NC(=O)CCC/C(CC(=O)c2ccc(O)c(OC)c2)=N\NC(=O)C[N+](C)(C)C)c1 | met
CC1(C)CC(=O)c2c(nc3ccc4ccccc4c3c2-c2ccc(NC(=O)CCCC(=O)Nc3ccc(-c4c5c(nc6ccc7ccccc7c46)CC(C)(C)CC5=O)cc3)cc2)C1 | met
CCCCCCc1cc(C(=O)Nc2cccc(C(F)(F)F)c2)nc(N)n1 | met
CC(=O)Nc1ccccc1SCCSSCCSc1ccccc1NC(C)=O | met
COC(=O)C1=CSC2(S1)C(C(=O)OC)=CSc1c2ssc1=Nc1ccccc1 (stereo unspecified) | not met
COC(=O)c1ccc2c(O)c(O)ccc2c1 | not met
Cc1ccc(S(=O)(=O)NCCSCCNS(=O)(=O)c2ccc(C)cc2)cc1 | met
O=S(=O)(Sc1ccc(Cl)cc1)c1ccc(Cl)cc1 | not met

====

Tested on: HCT-15 colon
protocol_description: NCI tumour cell line growth inhibition, 48 h; in the data active means GI50 below about 0.43 µM; inactive means the rest
Classes used: 1.0 for active, 0.0 for inactive

molecule | group_label
CC(C)CC(CC1=CCC2CC1C2(C)C)C1=C(O)C(C)(C)C(=O)C(C)(C)C1=O (configuration not stated) | 1.0
Cc1cc2c3ccc(C)[n+](C)c3ccc2n1C | 0.0
CCN1CCC(CCOC)(CN2c3ccccc3Sc3ccc(Cl)cc32)C1 (configuration not stated) | 0.0
c1ccc2c(c1)c(NCCCCN1CCCCC1)cc1c3ccccc3c(NCCCCN3CCCCC3)cc21 | 0.0
O=c1[nH]c2ccccc2nc1-c1c[nH]c2ccccc12 | 0.0
O=[N+]([O-])c1cccc(-c2nc3sccn3c2-c2ccnc(NCCCNS(=O)(=O)c3cccc(F)c3)n2)c1 | 0.0
Cc1ccc(NC(=O)/C=C/c2ccccc2)c(C(N)=O)c1 | 0.0
CN(C)c1ccc(/C=C\c2cccc[n+]2C)cc1 | 0.0
CC(C)(C)c1ccc(OCCCCCCN2CCNCC2)cc1 | 0.0
COC1CC(OS(=O)(=O)c2ccc(C)cc2)C(OC(=O)c2ccccc2)C(C)O1 (configuration not stated) | 0.0
CCCn1c(C)nc2c1C(=O)c1ccccc1C2=O | 0.0
CC1=C(CCC(C)N(C)Cc2ccc(OCCCN3CCCC3)cc2)C(C)(C)CCC1 (configuration not stated) | 0.0
COC(=O)Cn1c2c(c3c(O)cccc31)C(=O)c1ccccc1-2 | 0.0
CCN=C1C=CC(=C(c2ccc(N)cc2)c2ccc(N(CC)CC)c(C)c2)C=C1 | 0.0
O=C1C(=O)c2c(nc3ccc(Cl)cn23)-c2ccccc21 | 0.0
Cn1c2c(cc(S(=O)(=O)c3ccccc3)c1=O)CCc1c-2cnn1-c1ccc(Cl)cc1 | 0.0
COc1cc2c(c(OC)c1OC)-c1ncc3cc(OC)c(OC)c(OC)c3c1C2 | 0.0

====

System: OVCAR-8 ovarian
protocol_description: NCI tumour cell line growth inhibition, 48 h; in the data active = GI50 below about 0.43 µM; inactive = the rest
Classes used: YES for active, NO for inactive

smiles_representation | measured_on | group_label
C=CC(=O)Nc1cccc(C)c1Nc1cc(-c2cccnc2Cc2c(C)c(OC)cc(OC)c2C)ncn1 | OVCAR-8 ovarian | NO
O[C@H]1CO[C@H]2[C@@H]1OC[C@@H]2Oc1ccc(Nc2ccnc(Nc3ccc(O[C@H]4CO[C@H]5[C@@H]4OC[C@@H]5O)c(Cl)c3)n2)cc1Cl | OVCAR-8 ovarian | NO
COc1ccc2cc(-c3ccoc(=O)c3-c3cc(OC)c(OC)c(OC)c3)ccc2c1 | OVCAR-8 ovarian | YES
COc1cc2nc(N3CCCC3)nc(NCC3CCCCC3)c2cc1OC | OVCAR-8 ovarian | NO
O=C1C(=O)c2c(nc3ccc(Cl)cn23)-c2ccccc21 | OVCAR-8 ovarian | NO
O=c1[nH]c2ccccc2nc1-c1c[nH]c2ccccc12 | OVCAR-8 ovarian | NO
COc1cccc(C=Nc2cc(C)ccn2)c1O.COc1cccc(C=Nc2cc(C)ccn2)c1O.[Cu] | OVCAR-8 ovarian | NO
CCN(C(=O)N1CCN(c2cc3c(cc2F)c(=O)c(C(=O)O)cn3C2CC2)CC1)c1nc(-c2ccc(C)cc2)cs1 | OVCAR-8 ovarian | NO
CN(C)c1ccc2c(c1)Sc1cc(N(C)C)ccc1N2C(=O)c1ccccc1 | OVCAR-8 ovarian | NO
